Hi there, I'd appreciate the recorded IC50 for every entry that follows.
test system: CAPAN-1; test: cells; assay type: functional, cell-based, Homo sapiens; conditions: Homo sapiens, CAPAN-1;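 also: growth suppression of CAPAN-1 cells, read out by a cell viability assay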
Description: SANGER: Inhibition of human CAPAN-1 cell growth in a cell viability assay.

For `Cn1cc(C2=C(c3ccc(Cl)cc3Cl)C(=O)NC2=O)c2ccccc21` the compound record lists IC50 as > 10000 nM

For `CCC1=C[C@@H]2CN(C1)Cc1c([nH]c3ccccc13)[C@@](C(=O)OC)(c1cc3c(cc1OC)N(C)[C@H]1[C@@](O)(C(=O)OC)[C@H](OC(C)=O)[C@]4(CC)C=CCN5CC[C@]31[C@@H]54)C2` the compound record lists IC50 as 14.2 nM

For `CN(c1ncccc1CNc1nc(Nc2ccc3c(c2)CC(=O)N3)ncc1C(F)(F)F)S(C)(=O)=O` the compound record lists IC50 as > 2560 nM

For `COc1ccc(C2=N[C@@H](c3ccc(Cl)cc3)[C@@H](c3ccc(Cl)cc3)N2C(=O)N2CCNC(=O)C2)c(OC(C)C)c1` the compound record lists IC50 as > 8000 nM

For `COc1ccc(-c2ccc3c(N4CCOC[C@@H]4C)nc(N4CCOC[C@@H]4C)nc3n2)cc1CO` the compound record lists IC50 as > 2000 nM

For COc1cc(F)c(F)c(Nc2ccc(I)cc2F)c1NS(=O)(=O)C1(CC(O)CO)CC1 (configuration not stated) the compound record lists IC50 as 4150 nM

For `CN(C)C/C=C/C(=O)Nc1cc2c(Nc3ccc(F)c(Cl)c3)ncnc2cc1O[C@H]1CCOC1` the compound record lists IC50 as > 500 nM

* * *

tested on: CESS; assay: SANGER: Inhibition of human CESS cell growth in a cell viability assay.; type: functional, cell-based
Hi there, I'd appreciate the recorded IC50 for every entry that follows.

For `CNC(=O)c1cc(Oc2ccc(NC(=O)Nc3ccc(Cl)c(C(F)(F)F)c3)cc2)ccn1` the molecule record lists IC50 as > 4 µM

For `CS(=O)(=O)CCNCc1ccc(-c2ccc3ncnc(Nc4ccc(OCc5cccc(F)c5)c(Cl)c4)c3c2)o1` the molecule record lists IC50 as > 2 µM

For `Cc1ccc(Nc2nccc(N(C)c3ccc4c(C)n(C)nc4c3)n2)cc1S(N)(=O)=O` the molecule record lists IC50 as > 8 µM

For `CCC(=O)N1CCN(c2ccc(-n3c(=O)ccc4cnc5ccc(-c6cnc7ccccc7c6)cc5c43)cc2C(F)(F)F)CC1` the molecule record lists IC50 as 0.031 µM

* * *

tested on: NBsusSR; test: cells; assay type: functional, cell-based; conditions: Homo sapiens;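 also: growth inhibition of the human cell line, read out with a cell viability assay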
Description: SANGER: Inhibition of human NBsusSR cell growth in a cell viability assay.
pIC50: −log10 of the molar value.
readoutType: pIC50

For `CN(C)C/C=C/C(=O)Nc1cc2c(Nc3ccc(F)c(Cl)c3)ncnc2cc1O[C@H]1CCOC1` the compound record lists pIC50 as < 6.30

For CN(Cc1cnc2nc(N)nc(N)c2n1)c1ccc(C(=O)N[C@@H](CCC(=O)O)C(=O)O)cc1 [METHOTREXATE] the compound record lists pIC50 as 7.53

For `O=C1N=C(NCc2cccs2)S/C1=C\c1ccc2ncccc2c1` the compound record lists pIC50 as < 5.30

For COc1cc(F)c(F)c(Nc2ccc(I)cc2F)c1NS(=O)(=O)C1(CC(O)CO)CC1 (configuration not stated) the compound record lists pIC50 as < 5.30

For `COc1ccc(-c2ccc3c(N4CCOC[C@@H]4C)nc(N4CCOC[C@@H]4C)nc3n2)cc1CO` the compound record lists pIC50 as 6.77

For `O=C(c1cc(Cc2n[nH]c(=O)c3ccccc23)ccc1F)N1CCN(C(=O)C2CC2)CC1` the compound record lists pIC50 as < 5.30

For `COc1ccc(C2=N[C@@H](c3ccc(Cl)cc3)[C@@H](c3ccc(Cl)cc3)N2C(=O)N2CCNC(=O)C2)c(OC(C)C)c1` the compound record lists pIC50 as < 5.10
